Data origin, for the record: patent US20180334496A1

# measured-on: human complement factor D purified from serum (human, UniProt P00746 26-253)
# Sequence (P00746 26-253): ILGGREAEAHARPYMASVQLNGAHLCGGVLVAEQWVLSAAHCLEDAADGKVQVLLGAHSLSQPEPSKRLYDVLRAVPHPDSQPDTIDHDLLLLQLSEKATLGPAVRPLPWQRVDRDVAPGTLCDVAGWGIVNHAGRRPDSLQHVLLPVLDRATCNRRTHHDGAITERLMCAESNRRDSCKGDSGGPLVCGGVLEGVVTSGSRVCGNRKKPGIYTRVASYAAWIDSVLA
# method-summary: cell-based or functional assay; note: test concentration or dose not given here
Provide the recorded CFD Enzymatic activity (% of Neg Ctrl) for the entries that follow.

{"columns": ["binder", "CFD Enzymatic activity (% of Neg Ctrl)"],
 "data": [
  ["KCD122 (antibody, V domains shown, chimeric) VH: EVQLQQSGPELVKPGASVKISCKASGYTFTDYYKNWMRQRHGESLEWIGDINPNNGDANYNQKFKGKATLTVDKSSSTAYMELRSLTSEDSAVYFCAREGPSFAYWGHGTLVTVSA VL: DVLMTQTPLSLPVSLGDQASISCRSSQTIVHSNGDTYLEWYLQKPGQSPNLLIYKVSNRFSGVPDRFSGSGSGTDFTLKISRVEAEDLGVYYCFQGSHVPPTFGGGTKLEIK", "17.3 % of Neg Ctrl"],
  ["KCD119 (antibody, V domains shown, chimeric; also called Mouse KCD119) VH: EVQLQQSGPELVKPGASVKISCKASGYTFTDYYTNWMRQRHGESLEWIGDINPNTGDTSYNQKFRVKATLTVDKSSGTAYMGLRSLTSEDSAVYYCTREGPSFAYWGQGTLVTVSA VL: DVLMTQTPLSLPVSLGDQASISCRSSQTIVHSNGDTYLEWYLQKPGQSPNLLIYKVSNRFSGVPDRFSGSGSGTDFTLKISRVEAEDLGVYYCFQGSHVPPTFGGGTTLEIK", "15.7 % of Neg Ctrl"],
  ["KCD124 (antibody, V domains shown, chimeric) VH: EVQLQQSGPELVKPGASVKISCKASGYTFTDHYMNWVKQSHGKSLEWIGDINPNNGGTSYNQKFKGKATLTVDKSSSTAYMELRSLTSGDSAVYYCTREGASFAFWGQGTLVTVSA VL: DVLMTQTPLSLPVSLGDQASISCRSSQSIVHSNGDTYLEWYLQKPGQSPKLLIYKVSNRFSGVPDRFSGSGSGTDFTLKISRVEAEDLGVYYCFQGSHVPLTFGAGTKLELK", "19.7 % of Neg Ctrl"],
  ["KCD010 (antibody, V domains shown, chimeric) VH: EVLLQQSGPELVKPGASVKIPCKASGYTFTDYDMDWVKQSHGKSLEWIGHINPNNGGTIYNQKFKGKATLTVDKSSSTAYMELRSLTSEDTAVYYCGTGDFAYWGHGTLVTVSA VL: QIVLTQSPAIMSVSPGEKVTLTCSASSSVSSSYLYWYQKKPGSSPKLWIYSTSNLASGVPARFSGSGSGTSYSLTISSMEAEDAASYFCHQWSSYPPTFGAGTKLELK", "49.4 % of Neg Ctrl"]
]}

Please supply CFD Enzymatic activity (% of Neg Ctrl) for each of the following items, keeping them in order.
1. KCD118 (antibody, V domains shown, chimeric) VH: EVQLQQSGPELVKPGASVKISCKAFGYTFTDYYKNWMRQRHGESLEWIGDINPNSGDANYNQKFKGKATLTVDKSSSTAYMELRSLTSEDSAVYYCAREGPSFAYWGHGTLVTVSA VL: DVLMTQTPLSLPVSLGDQASISCRSSQTIVHSNGDTYLEWYLQKPGQSPNLLIYKVSNRFSGVPDRFSGSGSGTDFTLKISRVEAEDLGIYYCFQGSHVPPTFGGGTKLEIK
2. KCD123 (antibody, V domains shown, chimeric) VH: EVHLQQSGPELVKPGASVKISCKASGYTFTDFYKNWMRQRHGESLEWIGDINPNNGGTNYNQKFKGKATLTVDKSSSTAYMELRSLTSEDSAVYYCAREGPSFAYWGQGTLVTVSA VL: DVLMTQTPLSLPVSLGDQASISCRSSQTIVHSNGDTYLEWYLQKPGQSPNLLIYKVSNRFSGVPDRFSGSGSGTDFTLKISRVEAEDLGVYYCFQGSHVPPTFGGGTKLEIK

14 % of Neg Ctrl
18.7 % of Neg Ctrl
